# experimental_setup: buffer; pH 7.4; 200.0 µM
measured_attribute: solubility kinetic (µg/mL)

[
  {
    "compound": "COc1cccc(CNC(=O)CCCC(=O)NC(C)CCc2ccccc2)c1 (stereo not given)",
    "measured_attribute": "solubility kinetic",
    "unit_abbrev": "µg/mL",
    "qualifier_sign": ">",
    "reported_value": 57.4
  },
  {
    "compound": "O=C1CC(c2ccccc2)CC(=O)N1c1ccccc1",
    "measured_attribute": "solubility kinetic",
    "unit_abbrev": "µg/mL",
    "qualifier_sign": "=",
    "reported_value": 11.3
  },
  {
    "compound": "NC1=C([N+](=O)[O-])C(c2ccc3c(c2)OCO3)C2=C(CCCC2=O)O1 (stereo not given)",
    "measured_attribute": "solubility kinetic",
    "unit_abbrev": "µg/mL",
    "qualifier_sign": "=",
    "reported_value": 48.4
  },
  {
    "compound": "Cc1ccccc1N1CC2=C(C1=O)C(c1ccccc1)NC(=O)N2C (stereo not given)",
    "measured_attribute": "solubility kinetic",
    "unit_abbrev": "µg/mL",
    "qualifier_sign": "=",
    "reported_value": 0.5
  },
  {
    "compound": "O=C(NC(=S)NC1CCS(=O)(=O)C1)c1ccccc1 (stereo not given)",
    "measured_attribute": "solubility kinetic",
    "unit_abbrev": "µg/mL",
    "qualifier_sign": ">",
    "reported_value": 44.8
  },
  {
    "compound": "Cc1nc2c(C)cccc2c2c1CCS2",
    "measured_attribute": "solubility kinetic",
    "unit_abbrev": "µg/mL",
    "qualifier_sign": "=",
    "reported_value": 0.5
  },
  {
    "compound": "Cc1ccc(NC(=O)COC(=O)CCc2ccccc2)c(Cl)c1",
    "measured_attribute": "solubility kinetic",
    "unit_abbrev": "µg/mL",
    "qualifier_sign": "=",
    "reported_value": 6.9
  },
  {
    "compound": "O=C(CN1C(=O)COc2ccccc21)NCCN1CCCC1",
    "measured_attribute": "solubility kinetic",
    "unit_abbrev": "µg/mL",
    "qualifier_sign": ">",
    "reported_value": 45.5
  },
  {
    "compound": "O=C1CC(N2CCSCC2)C(=O)N1c1ccc(F)cc1 (stereo not given)",
    "measured_attribute": "solubility kinetic",
    "unit_abbrev": "µg/mL",
    "qualifier_sign": ">",
    "reported_value": 44.2
  },
  {
    "compound": "O=C(Nc1nncs1)C1CC(=O)N(C2CCCC2)C1 (stereo not given)",
    "measured_attribute": "solubility kinetic",
    "unit_abbrev": "µg/mL",
    "qualifier_sign": ">",
    "reported_value": 42.1
  },
  {
    "compound": "CC(C)c1ccc(OCc2ccc(C(=O)N3CCCC3)o2)cc1",
    "measured_attribute": "solubility kinetic",
    "unit_abbrev": "µg/mL",
    "qualifier_sign": "=",
    "reported_value": 26.7
  },
  {
    "compound": "OCCN1CCN(CC#CCC(c2ccccc2)c2ccccc2)CC1",
    "measured_attribute": "solubility kinetic",
    "unit_abbrev": "µg/mL",
    "qualifier_sign": ">",
    "reported_value": 52.3
  },
  {
    "compound": "CCOc1c(N2CC(C)OC(C)C2)c(=O)c1=O (stereo not given)",
    "measured_attribute": "solubility kinetic",
    "unit_abbrev": "µg/mL",
    "qualifier_sign": ">",
    "reported_value": 35.9
  },
  {
    "compound": "O=C(CN1CCN(Cc2ccccc2)CC1)Nc1nc2ccccc2s1",
    "measured_attribute": "solubility kinetic",
    "unit_abbrev": "µg/mL",
    "qualifier_sign": "=",
    "reported_value": 47.4
  },
  {
    "compound": "COc1cccc(Nc2c([N+](=O)[O-])cncc2[N+](=O)[O-])c1",
    "measured_attribute": "solubility kinetic",
    "unit_abbrev": "µg/mL",
    "qualifier_sign": ">",
    "reported_value": 43.5
  },
  {
    "compound": "CC(=O)N1CCN(C23CC4CC(CC(C4)C2)C3)CC1",
    "measured_attribute": "solubility kinetic",
    "unit_abbrev": "µg/mL",
    "qualifier_sign": ">",
    "reported_value": 39.4
  },
  {
    "compound": "Cc1ccc(C2=Nc3ccccc3N=C(C(Cl)Cl)C2)cc1",
    "measured_attribute": "solubility kinetic",
    "unit_abbrev": "µg/mL",
    "qualifier_sign": "=",
    "reported_value": 3.1
  },
  {
    "compound": "CC(=O)Cn1cnc2c(sc3nc(C)cc(C)c32)c1=O",
    "measured_attribute": "solubility kinetic",
    "unit_abbrev": "µg/mL",
    "qualifier_sign": "=",
    "reported_value": 7.2
  },
  {
    "compound": "CN=c1scc(-c2ccccc2F)n1/N=C/c1ccc(O)c(O)c1O",
    "measured_attribute": "solubility kinetic",
    "unit_abbrev": "µg/mL",
    "qualifier_sign": ">",
    "reported_value": 53.9
  },
  {
    "compound": "COc1cc(NS(=O)(=O)c2cn(C)cn2)cc(OC)c1",
    "measured_attribute": "solubility kinetic",
    "unit_abbrev": "µg/mL",
    "qualifier_sign": "=",
    "reported_value": 8.9
  },
  {
    "compound": "O=C(NCCCNC(=O)c1cnccn1)c1ccc(Cl)c(Cl)c1",
    "measured_attribute": "solubility kinetic",
    "unit_abbrev": "µg/mL",
    "qualifier_sign": "=",
    "reported_value": 41.4
  },
  {
    "compound": "CCOc1c(Nc2ccccc2O)c(=O)c1=O",
    "measured_attribute": "solubility kinetic",
    "unit_abbrev": "µg/mL",
    "qualifier_sign": ">",
    "reported_value": 35
  },
  {
    "compound": "CCn1c(Cc2ccc(OC)cc2)nc2ccccc21",
    "measured_attribute": "solubility kinetic",
    "unit_abbrev": "µg/mL",
    "qualifier_sign": ">",
    "reported_value": 40
  },
  {
    "compound": "CCN1CCN(c2cc(=O)n3ccccc3n2)CC1",
    "measured_attribute": "solubility kinetic",
    "unit_abbrev": "µg/mL",
    "qualifier_sign": "=",
    "reported_value": 32
  },
  {
    "compound": "COc1cc(OC)cc(C(=O)NCCc2cnc[nH]2)c1",
    "measured_attribute": "solubility kinetic",
    "unit_abbrev": "µg/mL",
    "qualifier_sign": ">",
    "reported_value": 41.3
  }
]
